Tested on: OVCAR-8
ASSAY_METHOD_TEXT: NCI tumour cell line growth inhibition, 48 h
Calls of active or inactive are those of the source. Rule as the data show it: active = GI50 up to about 1.1 µM and inactive = higher.
Record form. Attribute: GI50. Fill in for each entry.

Field: example entries. Status: answers known.
# COMPOUND, READOUT_LABEL, MEASURED_VALUE
records = [
    ("CC1=NN(C(=O)CC(=O)Nc2ccc(C)cc2)C(=O)C1/N=N/c1ccc(C(=O)O)cc1 (stereo unspecified)", "GI50", "> 100 µM (inactive)"),
    ("Cc1ccc(C2(O)CC(c3ccc([N+](=O)[O-])o3)=NN2C(=O)COc2ccccc2Cl)cc1 (stereo unspecified)", "GI50", "11.2 µM (inactive)"),
    ("CC1(C)[C@@H]2CC[C@@]1(C)[C@@H]1O[C@@H](O[C@@H](CN)c3cc(Cl)c(OCc4ccccc4)c(OCc4ccccc4)c3)C[C@H]21", "GI50", "0.189 µM (active)"),
    ("O=C(CC(C(=O)c1cccs1)c1ccccc1)c1ccccc1O (stereo unspecified)", "GI50", "9.62 µM (inactive)"),
]

Below is a list of compounds. For each, state its recorded GI50.
1. CCc1nc2c(O)ccc(O)c2nc1C
2. O=C1CC(c2c(-c3ccccc3)[nH]c3ccccc23)C(=O)N1 (stereo unspecified)
3. S=c1sc2c(s1)SCCCCSCCCCSc1sc(=S)sc1SCCCCSCCCCS2
4. Cn1c(N)[n+](C(=O)OCc2ccccc2)c(=O)c2c1ncn2C(=O)OCc1ccccc1
5. Nc1nc(-c2cccc([N+](=O)[O-])c2)cc(-c2cc(-c3cccc([N+](=O)[O-])c3)nc(N)n2)n1
6. O=P(Oc1ccc(Cl)cc1)(Oc1ccc(Cl)cc1)N1CC1
7. CN(C)c1ccc(/N=C2/C=CC(=C(C#N)C#N)c3ccccc32)cc1

["10 µM (inactive)", "> 100 µM (inactive)", "> 100 µM (inactive)", "> 100 µM (inactive)", "> 100 µM (inactive)", "> 10 µM (inactive)", "0.213 µM (active)"]

Below is a list of compounds. For each, state its recorded GI50.
1. Nc1ccc(-c2cc(C(=O)Nc3nccs3)nc(S)n2)cc1
2. CC(=O)Oc1ccc2c(c1)CC[C@@H]1C2CC[C@]2(C)C(=O)NC(=O)CC12 (stereo partly specified)
3. CNC(=O)C1CCC(=O)N1CN(C(C)=O)c1ccccc1 (stereo unspecified)
4. CC(=O)Nc1ccc2[nH]c(C(=O)N3CC(CCl)c4c3cc(N)c3ccccc43)cc2c1 (stereo unspecified)
5. Cc1ccc2c(c1)CC1(C2=O)[C@H](c2ccccc2)C2C(=O)c3ccc(C)cc3C2[C@H]1c1ccccc1 (stereo partly specified)
6. c1ccc(Cn2c(-c3ccc(-c4ccccc4)cc3)cc3ccccc32)cc1
7. N#Cc1c2nc3ccccc3nc2n2ccccc12
8. O=S1(=O)C[C@@H](O)[C@H](O)CS1

1: > 100 µM (inactive); 2: > 100 µM (inactive); 3: > 100 µM (inactive); 4: < 0.0133 µM (active); 5: > 100 µM (inactive); 6: > 100 µM (inactive); 7: > 100 µM (inactive); 8: > 100 µM (inactive)

Below is a list of compounds. For each, state its recorded GI50.
1. Cc1ccsc1/C=N/Nc1ccccn1
2. CCCCCCCCCOCC(COP(=O)([O-])OCC[N+](C)(C)C)OC (stereo unspecified)

66.1 µM (inactive)
> 100 µM (inactive)

---

System: A498
ASSAY_METHOD_TEXT: NCI tumour cell line growth inhibition, 48 h
Activity calls are given as the source filed them. Rule as the data show it: active = GI50 up to about 1.1 µM and inactive = higher.
// allowed return values: 1 = active, -1 = inactive

# MOLECULE, CATEGORY_LABEL
data = [
    ("CCCCCCc1ccc(O)cc1O [HEXYLRESORCINOL]", -1),
    ("C/C1=C\\[C@H](C)C[C@H](C)OC(=O)C[C@H](c2ccc(O)cc2)NC(=O)[C@H](Cc2ccc(O)c(Br)c2)N(C)C(=O)[C@H](C)NC(=O)[C@@H](C)C1", -1),
    ("O=C1N[C@@H]2C(=C[C@H](O)[C@@H](O)[C@H]2O)c2cc3c(c(O)c21)OCO3 [NARCICLASINE]", 1),
    ("O=c1[nH]cnc2cccc(Cl)c12", -1),
    ("O=C1CCCCCCCCCCC1CN1CCCCC1 (stereo not given)", -1),
    ("COc1ccc(-n2c(N)c(C#N)c(C#N)c2-c2ccccc2)cc1", -1),
]

Kindly provide the recorded test outcome for the following molecule: O=C(OCC(OC(=O)c1ccccc1)C(OC(=O)c1ccccc1)C(OC(=O)c1ccccc1)c1cnn(-c2ccccc2)n1)c1ccccc1 (stereo not given)
-1

Kindly provide the recorded test outcome for the following molecule: CCCCn1c(O)nc2c(N)ncnc21
-1

Kindly provide the recorded test outcome for the following molecule: CN(C)C(=N)NC(=S)N(C)C
-1

Kindly provide the recorded test outcome for the following molecule: O=C1C(Cl)C(c2cc(Br)ccc2O)N1n1cnc2ccccc2c1=O (stereo not given)
-1

---

Test system: ACHN
ASSAY_METHOD_TEXT: NCI tumour cell line growth inhibition, 48 h
Calls of active or inactive are those of the source. Cut-off read from the data, not from the text of the source: active = GI50 up to about 1.1 µM and inactive = higher.
Record form. Attribute: GI50. Fill in for each entry.

Field: example entries. Status: answers known.
# COMPOUND, GI50
records = [
    ("COc1ccc2nc3c(C(=O)NCCN(C)C)cccc3nc2c1", "3.94 µM (inactive)"),
    ("COc1ccc(N2CN(C)CSC2=S)cc1", "> 100 µM (inactive)"),
    ("O=C1c2ccccc2C2C1C(c1ccccc1)C1(Cc3ccccc3C1=O)C2c1ccccc1 (stereo not given)", "> 100 µM (inactive)"),
    ("O=C(/C=C/c1ccsc1)c1ccc(Cl)s1", "> 100 µM (inactive)"),
    ("Cc1ccc(S(=O)(=O)C2=C([Si](C)(C)C)C3CC2[C@@H]2C4C=CC(CC4)[C@H]32)cc1 (stereo not given in full)", "99.5 µM (inactive)"),
    ("COc1cccc(/C=C2\\C(=O)N(C(=O)c3ccc(NC(C)=O)cc3)N=C2C)c1", "> 100 µM (inactive)"),
]

Below is a list of compounds. For each, state its recorded GI50.
1. O=[PH](O)c1cccs1
2. Nc1ccn(C2CCC(CO)O2)c(=O)n1 (stereo not given)
3. CN(C)c1ccc(/C=C2\N=C(N/N=C/c3ccc(N(C)C)cc3)NC2=O)cc1
4. N#COc1ccc(Oc2ccc(OC#N)cc2)cc1
5. COc1cc(/C=C2\CC(C)C/C(=C\c3ccc(O)c(OC)c3)C2=O)ccc1O (stereo not given)
6. Nc1ccc(CCSSCCc2ccc(N)cc2)cc1
7. CC1=C(/C=C/C(C)=C/C=C/C(C)=C/C(=O)O)C(C)(C)CCC1
8. S=c1sc2c(s1)SCCCCSCCCCSc1sc(=S)sc1SCCCCSCCCCS2

1. > 100 µM (inactive)
2. 785 µM (inactive)
3. > 100 µM (inactive)
4. 35.5 µM (inactive)
5. 3.13 µM (inactive)
6. 29.6 µM (inactive)
7. 48.5 µM (inactive)
8. > 100 µM (inactive)

Below is a list of compounds. For each, state its recorded GI50.
1. N#CC1=C(c2ccccc2)NNC(c2ccc(Cl)cc2)CC1=O (stereo not given)
2. CCCCCCCCC/C=C/C=C/C(=O)NCC(=O)NC1C(O)C(O)C(Nc2ncnc3[nH]cnc23)OC1C(O)CO (stereo not given)
3. Cc1nc(-c2ccccc2)c(-c2ccccc2)s1
4. CCSC1=N/C(=C\c2ccccc2O)C(Nc2ccc(C)cc2)=N1
5. CC(=O)Nc1ccc(S(=O)(=O)Nc2nc(-c3ccc(Cl)cc3)cc(N3N=C(c4ccc(Br)cc4)CC3c3ccccc3)n2)cc1 (stereo not given)

1. 49.2 µM (inactive)
2. 0.00953 µM (active)
3. 26.9 µM (inactive)
4. 83.6 µM (inactive)
5. 24.5 µM (inactive)

Lab note: CC(C)(C)OC(=O)NCC(C#N)CNC(=O)OC(C)(C)C gave GI50 of > 100 µM (inactive)

---

Record form. Attribute: GI50. Fill in for each entry.
Tested on: SK-MEL-5
ASSAY_METHOD_TEXT: NCI tumour cell line growth inhibition, 48 h
The source made the active and inactive calls. Rule as the data show it: active = GI50 up to about 1.1 µM and inactive = higher.

# MOLECULE, MEASURED_VALUE
rows = [
    ("CCN(CC)Cc1nc2sc3c(c2c(=O)n1-c1ccccc1)CCCC3", "16.3 µM (inactive)"),
    ("S=c1sc2c(s1)SCCCCSCCCCSc1sc(=S)sc1SCCCCSCCCCS2", "> 100 µM (inactive)"),
    ("COC1(OC)CC2C(=O)N(Cc3ccccc3)C1C(S(=O)(=O)c1ccccc1)C2C(C)S(=O)(=O)c1ccccc1 (centres undefined)", "> 100 µM (inactive)"),
    ("c1cc(CCN2CCCCC2)ccn1", "> 100 µM (inactive)"),
    ("O=C1CCCCCCCCCCC1CN(Cc1ccccc1)Cc1ccccc1 (centres undefined)", "13.1 µM (inactive)"),
    ("C=CC1(c2ccc(Br)cc2)OCCCO1", "> 100 µM (inactive)"),
]

Below is a list of molecules. For each, state its recorded GI50.
1. CCc1cccc(CC)c1NC(=O)C1=CNC(C)=C(C(=O)Nc2c(CC)cccc2CC)C1c1ccc(O)c(OC)c1 (centres undefined)
2. CCCCn1c(O)nc2c(N)ncnc21
3. Nc1ccn(C2CCC(CO)O2)c(=O)n1 (centres undefined)
4. Cn1c(=O)c2c(nc3n(Cc4ccccc4)c(=O)c(NCCBr)cn23)n(C)c1=O
5. O=P(Oc1ccc(Cl)cc1)(Oc1ccc(Cl)cc1)N1CC1
6. CC(=O)c1c2c(cc3c1CC1(C3)Cc3cc4c(c(C(=O)O)c3C1)CCC4)CCC2 (centres undefined)
7. C#CCOCn1cnc2c(Sc3c([N+](=O)[O-])ncn3C)ncnc21
8. CCCC1C(C#N)(C#N)C(C#N)=C(N)C1(C)C(C)=O (centres undefined)

1: 32.3 µM (inactive); 2: > 100 µM (inactive); 3: > 100 µM (inactive); 4: 26.2 µM (inactive); 5: > 10 µM (inactive); 6: 35.7 µM (inactive); 7: > 100 µM (inactive); 8: 65.2 µM (inactive)

Below is a list of molecules. For each, state its recorded GI50.
1. S=c1sscc1N1CCSc2ssc(=S)c21
2. c1ccc(Cn2c(-c3ccc(-c4ccccc4)cc3)cc3ccccc32)cc1
3. CC(=O)CC(=O)ON(C)C(=O)Cc1ccccc1
4. C=CCn1c(=O)c(Br)nn(CCOCP(=O)(OCC)OCC)c1=O
5. Cc1c(/C=N/NS(=O)(=O)c2ccccc2)no[n+]1[O-]
6. Oc1ccc(/C=N/c2nccs2)c(O)c1
7. CC(C(=O)c1ccc(O)cc1)C1(O)C(=O)Nc2c(Cl)cc(Cl)cc21 (centres undefined)
8. CCC/N=C(/NC(=O)c1ccc(Cl)cc1)SC

1: > 100 µM (inactive); 2: > 100 µM (inactive); 3: > 100 µM (inactive); 4: 61.2 µM (inactive); 5: > 100 µM (inactive); 6: > 100 µM (inactive); 7: 17.1 µM (inactive); 8: 48.6 µM (inactive)

Below is a list of molecules. For each, state its recorded GI50.
1. COCN1COCN/C1=N\C#N
2. CCCCCCCCOc1ccc(/C=C/C2=[N+](CCO)CCO2)cc1
3. ClC(Cl)(Cl)C(N1CCN(c2ccccc2)CC1)N1CCN(c2ccccc2)CC1

["> 100 µM (inactive)", "2.56 µM (inactive)", "> 100 µM (inactive)"]

Below is a list of molecules. For each, state its recorded GI50.
1. C/C(CC(=O)Nc1cccc([N+](=O)[O-])c1)=N\NC(=O)CC#N
2. N#Cc1c(C#N)c(-c2ccccc2)n(/N=C\c2ccccc2)c1N
3. O=C1NC(=O)c2ccccc2/C1=C/c1ccc2c(c1)OCO2
4. Cc1ccc(OCC2OC(n3cnc4nc(Cl)nc(Cl)c43)CC2Oc2ccc(C)cc2)cc1 (centres undefined)
5. CC(C)CC1C(=O)OC(C)(C)OC1=O
6. C/C1=C\[C@H](C)C[C@H](C)OC(=O)C[C@H](c2ccc(O)cc2)NC(=O)[C@H](Cc2ccc(O)c(Br)c2)N(C)C(=O)[C@H](C)NC(=O)[C@@H](C)C1
7. CCC1(O)CC(OC2CC(N(C)C)C(OC3CC(O)C(OC4CCC(=O)C(C)O4)C(C)O3)C(C)O2)c2c(cc3c(c2O)C(=O)c2c(O)ccc(O)c2C3=O)C1C(=O)OC (centres undefined)

> 100 µM (inactive)
11.4 µM (inactive)
15.1 µM (inactive)
16.3 µM (inactive)
> 100 µM (inactive)
> 25 µM (inactive)
< 0.01 µM (active)
